Molecular target: 5-hydroxytryptamine receptor 1A (Homo sapiens, UniProt P08908); note: assay procedure not described here
Sequence (P08908 whole entry): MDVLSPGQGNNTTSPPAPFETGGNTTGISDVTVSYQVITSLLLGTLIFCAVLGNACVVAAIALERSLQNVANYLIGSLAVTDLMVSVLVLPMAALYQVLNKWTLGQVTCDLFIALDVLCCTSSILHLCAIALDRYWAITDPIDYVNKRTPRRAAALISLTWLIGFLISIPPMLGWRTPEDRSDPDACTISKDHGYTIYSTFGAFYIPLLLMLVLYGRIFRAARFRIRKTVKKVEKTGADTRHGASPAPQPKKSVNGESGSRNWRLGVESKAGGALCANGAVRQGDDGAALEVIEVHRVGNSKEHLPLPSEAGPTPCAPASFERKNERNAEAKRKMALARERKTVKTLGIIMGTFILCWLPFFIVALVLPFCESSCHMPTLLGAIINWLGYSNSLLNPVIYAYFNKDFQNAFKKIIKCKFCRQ
Type: functional, cell-based
quantity name: AC50

These recorded examples may help you get a feel for the data.
CC1OC2(CS1)CN1CCC2CC1 (stereo unspecified) [CEVIMELINE] : > 10 µM
COc1ccccc1OCCNCC(O)COc1cccc2[nH]c3ccccc3c12 (stereo unspecified) [CARVEDILOL] : 0.04 µM
CC(C)Cc1ccc(C(C)C(=O)O)cc1 (stereo unspecified) [IBUPROFEN] : > 10 µM
Cc1noc(NS(=O)(=O)c2ccc(N)cc2)c1C [SULFISOXAZOLE] : > 10 µM
Cc1cc2cc3c(C)cc(=O)oc3c(C)c2o1 [TRIOXSALEN] : > 10 µM

Turning now to a further record.
input: Please list AC50 recorded for the compound Clc1ccc2c(N3CCN(CCCN4CCN(c5ccnc6cc(Cl)ccc56)CC4)CC3)ccnc2c1 [PIPERAQUINE]
output: > 30 µM
